FYI, the data here is from ChEMBL document CHEMBL4823282.

Test system: Enterococcus faecalis
Assay: Antibacterial activity against Enterococcus faecalis ATCC 29212 incubated for 18 hrs by CLSI based broth dilution method
Assay type: functional
Where a SMILES comes first, the peptide text is derived from it.
MIC by entry:
metric.name: MIC (µM)

# molecule, qualifier.operator, result
measured = [
    ("CC(C)C[C@H](NC(=O)CN)C(=O)N[C@@H](CC(C)C)C(=O)N[C@@H](CCCCN)C(=O)N[C@@H](CCCNC(=N)N)C(=O)N[C@@H](CC(C)C)C(=O)N[C@@H](CCCCN)C(=O)N[C@H](C(=O)N[C@@H](CC(C)C)C(=O)N[C@@H](C)C(N)=O)[C@@H](C)O (H-GLLKRLKTLA-NH2)", "≥", 512),
    ("CC[C@H](C)[C@H](NC(=O)[C@H](CCCNC(=N)N)NC(=O)[C@H](CCCCN)NC(=O)[C@H](Cc1ccccc1)NC(=O)[C@H](Cc1c[nH]c2ccccc12)NC(=O)CN)C(=O)N[C@@H](CCCCN)C(=O)N[C@H](C(=O)N[C@@H](Cc1ccccc1)C(=O)N[C@@H](Cc1c[nH]c2ccccc12)C(N)=O)[C@@H](C)O (H-GWFKRIKTFW-NH2)", "=", 64),
    ("NCCCC[C@H](NC(=O)[C@H](CCCCN)NC(=O)[C@H](Cc1c[nH]c2ccccc12)NC(=O)[C@H](CCCCN)NC(=O)[C@H](CCCCN)NC(=O)[C@H](Cc1c[nH]c2ccccc12)NC(=O)[C@H](Cc1c[nH]c2ccccc12)NC(=O)[C@@H](N)CCCCN)C(=O)N[C@@H](Cc1c[nH]c2ccccc12)C(=O)N[C@@H](Cc1c[nH]c2ccccc12)C(N)=O (H-KWWKKWKKWW-NH2)", "=", 8),
]

====

MIC by entry:
Tested on: Enterococcus faecalis
Test: Antibacterial activity against Enterococcus faecalis ATCC 29212 incubated for 18 hrs by CLSI based broth dilution method
Type: functional
Where a SMILES comes first, the peptide text is derived from it. Bridges are numbered along the chain shown (N, C = ends). [ ]: non-standard residue; d: D form. The star is where a group is joined. Ileψ(thiazoline)Cys = CC[C@H](C)[C@H](N)C1=N[C@H](C(=O)*)CS1; dOrn = NCCC[C@@H](N)C(=O)O
metric.name: MIC (µM)

# compound, readout.units, qualifier.operator, result
data = [
    ("CC(C)C[C@H](NC(=O)[C@H](C)NC(=O)[C@@H](NC(=O)[C@H](CCCCN)NC(=O)[C@H](C)NC(=O)[C@H](CCCNC(=N)N)NC(=O)[C@H](CCCCN)NC(=O)[C@H](C)NC(=O)[C@H](C)NC(=O)CN)[C@@H](C)O)C(N)=O (H-GAAKRAKTAL-NH2)", "µM", "≥", 512),
    ("CC1(C)S[C@@H]2[C@H](NC(=O)Cc3ccccc3)C(=O)N2[C@H]1C(=O)O", "µM", "=", 4),
    ("CC(C)C[C@H](NC(=O)CN)C(=O)N[C@@H](Cc1c[nH]c2ccccc12)C(=O)N[C@@H](CCCCN)C(=O)N[C@@H](CCCNC(=N)N)C(=O)N[C@@H](Cc1c[nH]c2ccccc12)C(=O)N[C@@H](CCCCN)C(=O)N[C@@H](CCCCN)C(=O)N[C@@H](Cc1ccccc1)C(=O)N[C@@H](Cc1c[nH]c2ccccc12)C(N)=O (H-GLWKRWKKFW-NH2)", "µM", "=", 32),
    ("C[C@@H](O)[C@H](NC(=O)[C@H](CCCCN)NC(=O)[C@H](Cc1c[nH]c2ccccc12)NC(=O)[C@H](CCCNC(=N)N)NC(=O)[C@H](CCCCN)NC(=O)[C@H](Cc1c[nH]c2ccccc12)NC(=O)[C@H](Cc1c[nH]c2ccccc12)NC(=O)CN)C(=O)N[C@@H](Cc1c[nH]c2ccccc12)C(=O)N[C@@H](Cc1c[nH]c2ccccc12)C(N)=O (H-GWWKRWKTWW-NH2)", "µM", "=", 16),
    ("CC[C@H](C)[C@H](N)C1=N[C@H](C(=O)N[C@@H](CC(C)C)C(=O)N[C@H](CCC(=O)O)C(=O)N[C@H](C(=O)N[C@H]2CCCCNC(=O)[C@H](CC(N)=O)NC(=O)[C@@H](CC(=O)O)NC(=O)[C@H](Cc3cnc[nH]3)NC(=O)[C@@H](Cc3ccccc3)NC(=O)[C@H]([C@@H](C)CC)NC(=O)[C@@H](CCCN)NC2=O)[C@@H](C)CC)CS1 [BACITRACIN] ({Ileψ(thiazoline)Cys}-L[dE]IK[dOrn]I[dF]H[dD]N; lactam 4-C)", "µM", "=", 32),
    ("CC[C@H](C)[C@H](NC(=O)CN)C(=O)N[C@@H](CCCNC(=N)N)C(=O)N[C@@H](Cc1c[nH]c2ccccc12)C(=O)N[C@@H](CCCCN)C(=O)N[C@@H](Cc1ccccc1)C(=O)N[C@@H](Cc1c[nH]c2ccccc12)C(=O)N[C@@H](CCCCN)C(=O)N[C@@H](Cc1ccccc1)C(=O)N[C@H](C(N)=O)[C@@H](C)O (H-GIRWKFWKFT-NH2)", "µM", "=", 128),
    ("CC[C@H](C)[C@H](NC(=O)[C@H](CCCNC(=N)N)NC(=O)[C@H](CCCNC(=N)N)NC(=O)[C@H](Cc1ccccc1)NC(=O)[C@H](Cc1ccccc1)NC(=O)CN)C(=O)N[C@@H](CCCNC(=N)N)C(=O)N[C@H](C(=O)N[C@@H](Cc1ccccc1)C(=O)N[C@@H](Cc1ccccc1)C(N)=O)[C@@H](C)O (H-GFFRRIRTFF-NH2)", "µM", "=", 32),
    ("CC(C)C[C@H](NC(=O)[C@H](CC(C)C)NC(=O)[C@@H](NC(=O)[C@H](CCCCN)NC(=O)[C@H](C)NC(=O)[C@H](CCCNC(=N)N)NC(=O)[C@H](CCCCN)NC(=O)[C@H](C)NC(=O)[C@H](CC(C)C)NC(=O)CN)[C@@H](C)O)C(N)=O (H-GLAKRAKTLL-NH2)", "µM", "≥", 512),
    ("C[C@@H](O)[C@H](NC(=O)[C@H](CCCCN)NC(=O)[C@H](Cc1c[nH]c2ccccc12)NC(=O)[C@H](CCCNC(=N)N)NC(=O)[C@H](CCCCN)NC(=O)[C@H](Cc1ccccc1)NC(=O)[C@H](Cc1ccccc1)NC(=O)CN)C(=O)N[C@@H](Cc1ccccc1)C(=O)N[C@@H](Cc1ccccc1)C(N)=O (H-GFFKRWKTFF-NH2)", "µM", "=", 64),
    ("CO[C@H]1/C=C/O[C@@]2(C)Oc3c(C)c(O)c4c(O)c(c(/C=N/N5CCN(C)CC5)c(O)c4c3C2=O)NC(=O)/C(C)=C\\C=C\\[C@H](C)[C@H](O)[C@@H](C)[C@@H](O)[C@@H](C)[C@H](OC(C)=O)[C@@H]1C", "µM", "<", 1),
    ("CC(C)C[C@H](NC(=O)[C@H](C)NC(=O)[C@@H](NC(=O)[C@H](CCCCN)NC(=O)[C@H](C)NC(=O)[C@H](CCCNC(=N)N)NC(=O)[C@H](CCCCN)NC(=O)[C@H](CC(C)C)NC(=O)[C@H](C)NC(=O)CN)[C@@H](C)O)C(N)=O (H-GALKRAKTAL-NH2)", "µM", "≥", 512),
    ("NC[C@H]1O[C@H](O[C@H]2[C@H](O)[C@@H](O[C@H]3O[C@H](CO)[C@@H](O)[C@H](N)[C@H]3O)[C@H](N)C[C@@H]2N)[C@H](O)[C@@H](O)[C@@H]1O", "µM", "=", 8),
    ("CC(C)C[C@H](NC(=O)[C@H](CC(C)C)NC(=O)[C@@H](NC(=O)[C@H](CCCCN)NC(=O)[C@H](Cc1ccccc1)NC(=O)[C@H](CCCNC(=N)N)NC(=O)[C@H](CCCCN)NC(=O)[C@H](CC(C)C)NC(=O)[C@H](CC(C)C)NC(=O)CN)[C@@H](C)O)C(N)=O (H-GLLKRFKTLL-NH2)", "µM", "=", 256),
]
